Cited source: patent US9546138B2

Test system: Mtb H37Rv resistant mutant 529-5X-108-B4 (inhA G96V)
Assay type: cell-based, Mycobacterium tuberculosis
Task for the reader: assign each of the following compounds its reported Compound MIC50.
Give bare numbers, in µM.

Worked examples follow.
>  <Compound>
CCc1cc(C(N)=S)ccn1 [Ethionamide, reference compound]

>  <Value Units>
µM

>  <Compound MIC50>
1.32

$$$$
>  <Compound>
O=c1[nH]c(CC2CCCCC2)cc(O)c1-c1ccccc1

>  <Value Units>
µM

>  <Compound MIC50>
14.60

$$$$

With those in mind, consider the next compound.
Exercise: For the compound NNC(=O)c1ccncc1 [Isoniazid, isoniazid, reference compound] , what Compound MIC50 is on record?
Key: 0.09

---

For each entry below, report its Compound MIC50 value.
System: BCG-529-108-10X-2 (InhA M161V)
Assay type: cell-based, M bovis BCG
One number for each entry, in µM.

# annotated cases, reported Compound MIC50 shown
>  <Compound>
NNC(=O)c1ccncc1 [Isoniazid, isoniazid, reference compound]

>  <Numeric Result>
1.27

$$$$
>  <Compound>
CC1(C)CCC(Cc2cc(O)c(-c3ccccc3)c(=O)[nH]2)CC1 [PD10]

>  <Numeric Result>
3.02

$$$$

Moving on to another compound below.
Exercise: What value of measured Compound MIC50 is listed for CC(C)Cc1cc(O)c(-c2ccccc2)c(=O)[nH]1 [PD12] ?
Key: 27.88

---

Tested on: Mtb H37Rv resistant mutant 529-5X-108-B2 (inhA S94A)
Type: cell-based, Mycobacterium tuberculosis
Readout: Compound MIC50

Examples with answers:
>  <Molecule>
CC(C)Cc1cc(O)c(-c2ccccc2)c(=O)[nH]1

>  <Result>
>40 µM

$$$$
>  <Molecule>
CC1(C)CCC(Cc2cc(O)c(-c3ccccc3)c(=O)[nH]2)CC1

>  <Result>
0.78 µM

$$$$
>  <Molecule>
O=c1[nH]c(CC2CCCCC2)cc(O)c1-c1ccccc1

>  <Result>
4.04 µM

$$$$
>  <Molecule>
NNC(=O)c1ccncc1 [Isoniazid, isoniazid, reference compound]

>  <Result>
0.86 µM

$$$$

// moving on: another record for Compound MIC50
Exercise: Would you mind telling me what Compound MIC50 value was observed for CCc1cc(C(N)=S)ccn1 [Ethionamide, reference compound] ?
Key: 9.74 µM

---

Tested on: Mtb H37Rv resistant mutant 529-10X-108-B6
Format: cell-based, Mycobacterium tuberculosis
Readout: Compound MIC50 (µM)
Answers are plain numbers, in µM.

>  <Compound>
CCc1cc(C(N)=S)ccn1 [Ethionamide, reference compound]

>  <Compound MIC50 (µM)>
1.41

$$$$

Moving on to the next compound.
Exercise: So what's the measured Compound MIC50 for this one? NNC(=O)c1ccncc1 [Isoniazid, isoniazid, reference compound]
Key: 0.11

---

Test system: Mtb H37Rv resistant mutant 529-10X-108-B6
Type: cell-based, Mycobacterium tuberculosis
I'd appreciate it if you could supply Compound MIC50 values for the items below.

Worked cases, Compound MIC50 given:
>  <Sample Smiles>
O=c1[nH]c(CC2CCCCC2)cc(O)c1-c1ccccc1

>  <Target Under Test>
Mtb H37Rv resistant mutant 529-10X-108-B6

>  <Compound MIC50>
>40 µM

$$$$
>  <Sample Smiles>
CC(C)Cc1cc(O)c(-c2ccccc2)c(=O)[nH]1

>  <Target Under Test>
Mtb H37Rv resistant mutant 529-10X-108-B6

>  <Compound MIC50>
>40 µM

$$$$

The record that follows has no Compound MIC50 shown yet.
Exercise: // lookup Compound MIC50 for CC1(C)CCC(Cc2cc(O)c(-c3ccccc3)c(=O)[nH]2)CC1
Key: >5.0 µM
